Molecular target: T1, Recombinant human extracellular domain of IL13RA2-6His (27-343) (human, UniProt Q14627 27-343)
T1 construct: also called Human IL13RA2-6His; human IL13Rα2
T1 sequence: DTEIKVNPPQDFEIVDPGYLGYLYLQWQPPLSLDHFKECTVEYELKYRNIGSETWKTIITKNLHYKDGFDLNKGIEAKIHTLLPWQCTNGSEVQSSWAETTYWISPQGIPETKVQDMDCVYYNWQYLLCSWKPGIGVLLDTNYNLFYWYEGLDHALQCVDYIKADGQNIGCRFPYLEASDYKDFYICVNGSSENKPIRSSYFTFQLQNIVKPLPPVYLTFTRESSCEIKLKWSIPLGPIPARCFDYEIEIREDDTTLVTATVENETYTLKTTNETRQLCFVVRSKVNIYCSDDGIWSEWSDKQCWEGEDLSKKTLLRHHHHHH
Assay: Biacore (SPR), IL13RA2-6His on the sensor, bivalent antibody in solution
Method: Biacore analysis using Human IL13RA2-6His coated sensor was used to calculate apparent affinity constants of the Clone 47 variants. A dilution series of the antibody variants were applied to the IL13RA2 sensor surface for 600 seconds […] to calculate the association constant Ka and buffer (HBS-EP+) was then applied for 1800 seconds to calculate the dissociation constant Kd. […] Binding affinity of a chimeric (Ch) Clone 47 and select humanised variants to human IL13Rα2 was measured on Biacore.
PROPERTY MEASURED: koff (s⁻¹)
Numbers only, in s⁻¹.

Recorded results for 3 binders are shown here.
Clone 47 VHA / Clone 47 VKA (HuCL47) (antibody, V domains shown, Expressed as IgG in Expi293 cells; also called VHA/VKA; VHANKA) VH: QVQLVQSGAEVKKPGASVKVSCKASGYTFSNYLMNWVRQAPGQGLEWMGRIDPYDGDIDYNQNFKDRVTITRDTSASTAYMELSSLRSEDTAVYYCARGYGTAYGVDYWGQGTSVTVSS VL: EIVLTQSPATLSLSPGERATLSCRASESVDNYGISFMNWYQQKPGQAPRLLIYAASRQGSGIPDRFSGSGSGTDFTLTISRLEPEDFAVYYCQQSKEVPWTFGGGTKLEIK	1.12e-05
Clone 47 VHA / Clone 47 VKA2 (antibody, V domains shown, Expressed as IgG in Expi293 cells; also called VHA/VKA2) VH: QVQLVQSGAEVKKPGASVKVSCKASGYTFSNYLMNWVRQAPGQGLEWMGRIDPYDGDIDYNQNFKDRVTITRDTSASTAYMELSSLRSEDTAVYYCARGYGTAYGVDYWGQGTSVTVSS VL: EIVLTQSPATLSLSPGERATLSCRASESVDNYGISFMNWYQQKPGQAPRLLIYAASRQGSGIPDRFSGSGSGTDFTLTISRLEPEDFAVYFCQQSKEVPWTFGGGTKLEIK	8.2e-06
Clone 47 VHA / Clone 47 VKA1 (antibody, V domains shown, Expressed as IgG in Expi293 cells; also called VHA/VKA1) VH: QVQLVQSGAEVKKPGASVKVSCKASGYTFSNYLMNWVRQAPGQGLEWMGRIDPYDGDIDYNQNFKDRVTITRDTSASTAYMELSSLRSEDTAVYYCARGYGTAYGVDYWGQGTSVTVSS VL: EIVLTQSPATLSLSPGERATLSCRASESVDNYGISFMNWFQQKPGQAPRLLIYAASRQGSGIPDRFSGSGSGTDFTLTISRLEPEDFAVYYCQQSKEVPWTFGGGTKLEIK	2.65e-05

Please look at the following binder next.
Field koff (entry Clone 47 VHAback / Clone 47 VKA (antibody, V domains shown, Expressed as IgG in Expi293 cells; also called VHAback/VKA) VH: QVQLVQSGAEVKKPGASVKVSCKASGYTFSNYLMNWVRQAPGQGLEWIGRIDPYDGDIDYNQNFKDRATLTVDKSASTAYMELSSLRSEDTAVYYCARGYGTAYGVDYWGQGTSVTVSS VL: EIVLTQSPATLSLSPGERATLSCRASESVDNYGISFMNWYQQKPGQAPRLLIYAASRQGSGIPDRFSGSGSGTDFTLTISRLEPEDFAVYYCQQSKEVPWTFGGGTKLEIK ) reads 5.3e-06
